# TGT: UniProtKB P21731
# Sequence (P21731 whole entry): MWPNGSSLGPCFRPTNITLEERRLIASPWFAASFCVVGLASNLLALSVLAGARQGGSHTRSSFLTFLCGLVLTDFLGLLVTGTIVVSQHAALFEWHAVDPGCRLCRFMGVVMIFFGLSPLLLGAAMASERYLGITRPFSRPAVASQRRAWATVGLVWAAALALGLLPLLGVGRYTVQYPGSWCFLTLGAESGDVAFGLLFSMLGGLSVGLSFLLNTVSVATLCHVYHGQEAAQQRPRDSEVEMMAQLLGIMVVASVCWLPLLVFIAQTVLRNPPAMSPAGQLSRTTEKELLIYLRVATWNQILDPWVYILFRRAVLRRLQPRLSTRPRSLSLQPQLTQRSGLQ
Answer each item with its documented AC50.

Look up AC50 for this molecule: C/C=C(/C(=C/C)c1ccc(O)cc1)c1ccc(O)cc1
> 10 µM

Look up AC50 for this molecule: CC(CN(C)C)C(C)(O)Cc1ccc(Cl)cc1 (centres undefined)
> 30 µM

Look up AC50 for this molecule: CN1CCN=C(c2ccccc2)c2cc(Cl)ccc21
> 30 µM

Look up AC50 for this molecule: Cn1c(=O)c2c(ncn2CCOC(=O)C(C)(C)Oc2ccc(Cl)cc2)n(C)c1=O [THEOFIBRATE]
> 30 µM

Look up AC50 for this molecule: CCOC(=O)C(C)(C)Oc1ccc(Cl)cc1 [CLOFIBRATE]
> 30 µM

Look up AC50 for this molecule: Oc1ccc(CCNCCCCCCNCCc2ccccc2)cc1O
> 30 µM

Look up AC50 for this molecule: CCN1CC(CCN2CCOCC2)C(c2ccccc2)(c2ccccc2)C1=O (centres undefined)
> 30 µM

Look up AC50 for this molecule: CCCc1nc2c(C)cc(-c3nc4ccccc4n3C)cc2n1Cc1ccc(-c2ccccc2C(=O)O)cc1
18.1 µM

Look up AC50 for this molecule: COc1cc(C(=O)OCc2cccc(COC(=O)c3cc(OC)c(OC)c(OC)c3)n2)cc(OC)c1OC
> 30 µM

----------
# TGT: Neuronal acetylcholine receptor subunit alpha-4 (Homo sapiens)
# Sequence (P43681 whole entry): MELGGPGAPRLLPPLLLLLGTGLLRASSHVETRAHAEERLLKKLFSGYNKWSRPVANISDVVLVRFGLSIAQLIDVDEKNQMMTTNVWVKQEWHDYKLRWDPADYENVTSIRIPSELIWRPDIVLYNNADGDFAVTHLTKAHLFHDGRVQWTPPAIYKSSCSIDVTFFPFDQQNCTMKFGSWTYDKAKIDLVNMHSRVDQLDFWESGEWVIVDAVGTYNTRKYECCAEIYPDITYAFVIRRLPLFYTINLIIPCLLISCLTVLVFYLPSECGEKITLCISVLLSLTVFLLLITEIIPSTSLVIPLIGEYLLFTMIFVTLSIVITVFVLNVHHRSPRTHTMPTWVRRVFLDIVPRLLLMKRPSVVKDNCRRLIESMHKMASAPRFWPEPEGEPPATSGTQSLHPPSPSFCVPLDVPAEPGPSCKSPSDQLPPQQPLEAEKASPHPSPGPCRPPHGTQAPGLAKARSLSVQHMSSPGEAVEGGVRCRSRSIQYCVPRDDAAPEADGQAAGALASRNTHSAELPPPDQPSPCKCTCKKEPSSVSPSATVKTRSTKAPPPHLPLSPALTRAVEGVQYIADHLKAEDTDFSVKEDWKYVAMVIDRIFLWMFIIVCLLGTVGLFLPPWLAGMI
Answer each item with its documented AC50.

Look up AC50 for this compound: O=C(c1cc(Cc2n[nH]c(=O)c3ccccc23)ccc1F)N1CCN(C(=O)C2CC2)CC1
> 30 µM

Look up AC50 for this compound: CCOc1nc2cccc(C(=O)O)c2n1Cc1ccc(-c2ccccc2-c2nnn[nH]2)cc1
> 10 µM

Look up AC50 for this compound: CC(c1cc2ccccc2s1)N(O)C(N)=O (stereo not drawn)
> 10 µM

Look up AC50 for this compound: O=c1c(O)c(-c2ccc(O)c(O)c2)oc2cc(O)cc(O)c12
> 10 µM

Look up AC50 for this compound: C=CC[N+]1([C@H]2C[C@H]3[C@@H]4CC[C@H]5C[C@H](O)[C@@H](N6CCOCC6)C[C@]5(C)[C@H]4CC[C@]3(C)[C@H]2OC(C)=O)CCCC1
> 30 µM

Look up AC50 for this compound: CCOC(=O)[C@@H](N)Cc1ccc(-c2cc(O[C@H](c3ccc(Cl)cc3-n3ccc(C)n3)C(F)(F)F)nc(N)n2)cc1
> 30 µM

Look up AC50 for this compound: CN[C@]1(c2ccccc2Cl)CCCCC1=O
> 30 µM

Look up AC50 for this compound: C/C=C(/C(=C/C)c1ccc(O)cc1)c1ccc(O)cc1
> 10 µM

----------
Answer each item with its documented AC50.
# TGT: Histamine H2 receptor (Homo sapiens, UniProt P25021)
# Sequence (P25021 whole entry): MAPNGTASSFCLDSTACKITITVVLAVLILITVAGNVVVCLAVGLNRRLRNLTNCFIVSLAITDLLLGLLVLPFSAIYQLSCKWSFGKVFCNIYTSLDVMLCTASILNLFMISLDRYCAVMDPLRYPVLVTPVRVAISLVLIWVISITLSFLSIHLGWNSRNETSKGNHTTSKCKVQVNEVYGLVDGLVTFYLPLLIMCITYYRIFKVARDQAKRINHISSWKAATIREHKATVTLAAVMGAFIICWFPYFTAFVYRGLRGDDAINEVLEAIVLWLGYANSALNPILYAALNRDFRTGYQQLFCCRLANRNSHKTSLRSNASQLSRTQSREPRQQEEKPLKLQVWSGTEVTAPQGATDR
# Assay type: functional, cell-based

Look up AC50 for this compound: CC(C)NC(=N)NC(=N)Nc1ccc(Cl)c(Cl)c1
> 30 µM

Look up AC50 for this compound: CC(=O)Nc1ccc(CC(=O)O)cc1
> 30 µM

Look up AC50 for this compound: CC[C@H](C)C(=O)O[C@H]1C[C@@H](C)C=C2C=C[C@H](C)[C@H](CC[C@@H]3C[C@@H](O)CC(=O)O3)[C@H]21
> 10 µM

Look up AC50 for this compound: NS(=O)(=O)c1cc2c(cc1Cl)N=C(CSCc1ccccc1)NS2(=O)=O [BENZTHIAZIDE]
> 30 µM

Look up AC50 for this compound: COc1cc2[nH]c(C)c(CCN3CCN(c4ccccc4)CC3)c2cc1OC
> 30 µM

Look up AC50 for this compound: C[C@]12C/C(=C/O)C(=O)C[C@@H]1CC[C@@H]1[C@@H]2CC[C@@]2(C)[C@H]1CC[C@]2(C)O
> 30 µM

Look up AC50 for this compound: COC(=O)[C@H]1[C@H]2C[C@@H]3c4[nH]c5cc(OC)ccc5c4CCN3C[C@H]2C[C@@H](OC(=O)c2cc(OC)c(OC)c(OC)c2)[C@@H]1OC
> 30 µM

Look up AC50 for this compound: COc1ccc(C2C(=O)c3ccccc3C2=O)cc1
> 30 µM

----------
Answer each item with its documented AC50.
# TGT: Alpha-2A adrenergic receptor (Homo sapiens)
# Sequence (P08913 whole entry): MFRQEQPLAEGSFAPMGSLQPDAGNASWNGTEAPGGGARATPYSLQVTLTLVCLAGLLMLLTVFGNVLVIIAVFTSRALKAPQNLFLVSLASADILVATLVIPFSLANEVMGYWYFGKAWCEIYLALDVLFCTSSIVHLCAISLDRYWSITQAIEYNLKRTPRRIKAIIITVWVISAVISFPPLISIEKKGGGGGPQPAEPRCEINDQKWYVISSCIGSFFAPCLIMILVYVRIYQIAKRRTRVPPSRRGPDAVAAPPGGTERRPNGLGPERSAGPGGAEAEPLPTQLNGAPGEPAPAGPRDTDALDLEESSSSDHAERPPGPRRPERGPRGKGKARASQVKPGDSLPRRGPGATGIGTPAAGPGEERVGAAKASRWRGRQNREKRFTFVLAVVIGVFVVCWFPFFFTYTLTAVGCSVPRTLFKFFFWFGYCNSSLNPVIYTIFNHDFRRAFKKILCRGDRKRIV
# Assay type: functional, cell-based

Look up AC50 for this molecule: O=C1c2cccc3c2[C@H](CCC3)CN1[C@@H]1CN2CCC1CC2 [PALONOSETRON]
25 µM

Look up AC50 for this molecule: CCOC(=O)c1ccc(C#Cc2ccc3c(c2)C(C)(C)CCS3)nc1 [TAZAROTENE]
> 10 µM

Look up AC50 for this molecule: O=C1Nc2ccc(Cl)cc2C(c2ccccc2Cl)=NC1O (centres undefined) [LORAZEPAM]
> 10 µM

Look up AC50 for this molecule: O=S1(=O)CCN(CN2CCS(=O)(=O)NC2)CN1 [TAUROLIDINE]
> 30 µM

Look up AC50 for this molecule: CC(C)[C@@H](C)/C=C/[C@@H](C)[C@H]1CC[C@H]2/C(=C/C=C3\C[C@@H](O)CC[C@@H]3C)CCC[C@]12C [DIHYDROTACHYSTEROL]
> 10 µM

Look up AC50 for this molecule: CCCCCCCN(CC)CCCC(O)c1ccc(NS(C)(=O)=O)cc1 (centres undefined) [IBUTILIDE]
> 30 µM

Look up AC50 for this molecule: CN[C@]1(c2ccccc2Cl)CCCCC1=O [ESKETAMINE]
> 30 µM

Look up AC50 for this molecule: Cn1c(=O)c2c(ncn2CCOC(=O)C(C)(C)Oc2ccc(Cl)cc2)n(C)c1=O [THEOFIBRATE]
> 30 µM

Look up AC50 for this molecule: O=C(O)CCNC(=O)c1ccc(/N=N/c2ccc(O)c(C(=O)O)c2)cc1 [BALSALAZIDE]
> 30 µM

----------
# TGT: D(3) dopamine receptor (Homo sapiens)
# Sequence (P35462 whole entry): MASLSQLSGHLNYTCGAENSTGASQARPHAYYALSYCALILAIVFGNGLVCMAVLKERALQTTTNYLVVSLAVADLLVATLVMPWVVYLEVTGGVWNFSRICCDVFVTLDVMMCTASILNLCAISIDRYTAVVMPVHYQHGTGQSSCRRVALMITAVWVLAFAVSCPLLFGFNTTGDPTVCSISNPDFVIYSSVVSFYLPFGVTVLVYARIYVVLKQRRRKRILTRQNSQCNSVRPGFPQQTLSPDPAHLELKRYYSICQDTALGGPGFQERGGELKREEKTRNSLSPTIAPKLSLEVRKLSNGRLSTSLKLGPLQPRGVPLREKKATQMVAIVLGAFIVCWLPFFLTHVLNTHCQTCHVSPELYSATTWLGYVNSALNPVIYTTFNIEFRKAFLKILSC
METRIC_NAME: AC50

Look up AC50 for this compound: CC(O)(CS(=O)(=O)c1ccc(F)cc1)C(=O)Nc1ccc(C#N)c(C(F)(F)F)c1 (stereo unspecified) [BICALUTAMIDE]
> 30 µM

Look up AC50 for this compound: c1ccc2c(SC3=NCCN3)c[nH]c2c1
> 30 µM

Look up AC50 for this compound: CN[C@@H]1[C@H](O[C@H]2[C@H](O[C@H]3[C@H](O)[C@@H](O)[C@H](NC(=N)N)[C@@H](O)[C@@H]3NC(=N)N)O[C@@H](C)[C@]2(O)CO)O[C@@H](CO)[C@H](O)[C@H]1O [DIHYDROSTREPTOMYCIN]
> 30 µM

Look up AC50 for this compound: CCC1=C[C@@H]2CN(C1)Cc1c([nH]c3ccccc13)[C@@](C(=O)OC)(c1cc3c(cc1OC)N(C)[C@H]1[C@@](O)(C(=O)OC)[C@H](OC(C)=O)[C@]4(CC)C=CCN5CC[C@]31[C@@H]54)C2
> 30 µM

Look up AC50 for this compound: COc1cccc(C(=O)CCN[C@@H](C)[C@H](O)c2ccccc2)c1
0.382 µM

Look up AC50 for this compound: CC(CN1c2ccccc2Sc2ccccc21)N(C)C (stereo unspecified)
0.46 µM

Look up AC50 for this compound: CC1(C)O[C@@H]2C[C@H]3[C@@H]4C[C@H](F)C5=CC(=O)C=C[C@]5(C)[C@@]4(F)[C@@H](O)C[C@]3(C)[C@]2(C(=O)CO)O1 [FLUOCINOLONE ACETONIDE]
> 30 µM

Look up AC50 for this compound: Cc1ccc(S(=O)(=O)NC(=O)NC2CCCCC2)cc1 [GLYCYCLAMIDE]
> 30 µM

Look up AC50 for this compound: COc1ccccc1OC1(C)OC(=O)c2ccccc2O1 (stereo unspecified)
> 30 µM

Look up AC50 for this compound: Cc1ncc2c(c1O)COC2c1ccc(Cl)cc1 (stereo unspecified)
> 30 µM

Look up AC50 for this compound: CCNC(=O)/C=C(C)/C=C/C=C(C)/C=C/c1c(C)cc(OC)c(C)c1C [MOTRETINIDE]
> 30 µM

Look up AC50 for this compound: Cc1ccc(C(=O)C(C)CN2CCCCC2)cc1 (stereo unspecified)
2.52 µM

Look up AC50 for this compound: CC[N+](C)(CC)CCOC(=O)C(O)(c1ccccc1)C1CCCCC1 (stereo unspecified)
> 30 µM

Look up AC50 for this compound: CC(=O)O[C@H]1Cc2ccccc2N(C(N)=O)c2ccccc21 [ESLICARBAZEPINE ACETATE]
> 30 µM

Look up AC50 for this compound: C[N+]1(C)CCCC(OC(=O)C(O)(c2ccccc2)c2ccccc2)C1 (stereo unspecified) [MEPENZOLATE]
> 30 µM

Look up AC50 for this compound: O=C(O)P(=O)(O)O
> 30 µM
